# experimental system: T1, AFP158/HLA-A*02:01 complex (human)
# T1 construct: flowed as analyte in SPR
# assay info: SPR, fold vs AS170036 VL1VH1;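 note: crude scFv muteins immobilised on a sensor chip, peptide–MHC complex passed over at several concentrations, binding then buffer-driven dissociation, KD estimated from on- and off-rates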
Some binders, each annotated with its measured Affinity increase.

binder	Affinity increase / fold
AS170036 VL1VH1-56N98F108A (scFv, also called 49-AS170036 VL1VH1-56N98F108A) scFv: QSALTQPRSVSGSPGQSVTISCAGTSSDVGSENYVSWYQQHPGKAPKLMIYQVNKRASGVPDRFSGSKSGNTASLTISGLQAEDEADYYCASYRSSDFNIVFGGGTKLTVLGGGGSGGGGSGGGGSEVQLVESGGGLVQPGGSLRLSCAASGFTFSSYAMSWVRQAPGKGLEWVSTINSGTNSPYYADSVKGRFTISRDNSKNTLYLQMNSLRAEDTAVYYCAKNFFDGSWFLAPPAMDYWGQGTLVTVSSHHHHHH	41.7
AS170036 VL1VH1-57K98I108A (scFv, also called 70-AS170036 VL1VH1-57K98I108A) scFv: QSALTQPRSVSGSPGQSVTISCAGTSSDVGSENYVSWYQQHPGKAPKLMIYQVNKRASGVPDRFSGSKSGNTASLTISGLQAEDEADYYCASYRSSDINIVFGGGTKLTVLGGGGSGGGGSGGGGSEVQLVESGGGLVQPGGSLRLSCAASGFTFSSYAMSWVRQAPGKGLEWVSTINSGTGKPYYADSVKGRFTISRDNSKNTLYLQMNSLRAEDTAVYYCAKNFFDGSWFLAPPAMDYWGQGTLVTVSSHHHHHH	52.6
AS170036 VL1VH1-56Y98I108S (scFv, also called 45-AS170036 VL1VH1-56Y98I108S) scFv: QSALTQPRSVSGSPGQSVTISCAGTSSDVGSENYVSWYQQHPGKAPKLMIYQVNKRASGVPDRFSGSKSGNTASLTISGLQAEDEADYYCASYRSSDINIVFGGGTKLTVLGGGGSGGGGSGGGGSEVQLVESGGGLVQPGGSLRLSCAASGFTFSSYAMSWVRQAPGKGLEWVSTINSGTYSPYYADSVKGRFTISRDNSKNTLYLQMNSLRAEDTAVYYCAKNFFDGSWFLSPPAMDYWGQGTLVTVSSHHHHHH	81.5

Attribution: patent US20240279318A1
